Source: PubChem BioAssay

viability by entry:
Experiment: reversal of MRP1-mediated doxorubicin resistance, pilot screen, H69AR cells, doxorubicin co-treatment (AID 601)
Details: H69AR cells, CellTiter-Glo, 72 h; compound alone cytotoxicity; at 10 µM
Only the number, expressed in %, is required.

For reference, reported viability for "Cc1cccc(NC(=O)Cn2c(=O)n(C)c3ccccc32)c1" stands at 102

For reference, reported viability for CCOC(=O)c1sc(C)c2c1NC(C)(c1cccs1)NC2=O (stereo not drawn) stands at 82.5

For reference, reported viability for "CCOc1ccc2[nH]c(=O)c(CN(Cc3ccccc3)C(=O)N3CCCC3)cc2c1" stands at 82.1

For reference, reported viability for "FC(F)(F)c1cccc(N2CCN(c3nnnn3-c3ccccc3)CC2)c1" stands at 84.7

For reference, reported viability for "Cc1cc2c(cc1C)C(=O)NC(C)(C)C2" stands at 95.2

###

Assay: HUVEC growth inhibition – cell-based, human, primary screen (AID 575);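 further: 100% = median of untreated cell wells with 0.1% DMSO on each plate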
Settings: HUVEC proliferation, CellTiter-Glo luminescence, 72 h; at 10 µM; stronger effect = lower value
Flag rule - viability less than 90% flags y; the remaining entries get n.

Worked cases, answers included:
1. Cc1ccc(S(=O)(=O)C2(C(=O)Nc3nccs3)CC2)cc1; n
2. CC(C)Cn1c(CN(Cc2ccccc2)Cc2ccccc2)nc2c1c(=O)n(C)c(=O)n2C; y
3. Nc1nnc(-c2cn(-c3ccccc3)nc2-c2ccccc2)o1; y
4. NC(=O)c1c(NC(=O)CN2CCCC2)sc2c1CCCC2; n

Task: Hello, I'm reviewing records and need to know if viability of "Cc1nc2ccccc2c2oc(C(=O)NCc3ccccn3)cc12" is below 90%. Could you check?
Result: y

Task: Hello, I'm reviewing records and need to know if viability of "Cc1ccc(OC(=O)CCc2c(C)nc3ncnn3c2C)cc1" is below 90%. Could you check?
Result: n

Task: Hello, I'm reviewing records and need to know if viability of "CCSCCNC(=O)c1cc(-n2cnnc2)ccc1Cl" is below 90%. Could you check?
Result: n

Task: Hello, I'm reviewing records and need to know if viability of "COc1ccccc1OCC(=O)Nc1ccc(S(=O)(=O)Nc2nc(C)cc(C)n2)cc1" is below 90%. Could you check?
Result: n

Task: Hello, I'm reviewing records and need to know if viability of "Cc1ccccc1CSCC(=O)c1c(N)n(C)c(=O)n(C)c1=O" is below 90%. Could you check?
Result: n

Task: Hello, I'm reviewing records and need to know if viability of "CCSc1nnc(NC(=O)CSc2ncccn2)s1" is below 90%. Could you check?
Result: n

Task: Hello, I'm reviewing records and need to know if viability of "CN=C1CC(C)(C)CC(=O)/C1=C(/O)CCC(=O)NC" is below 90%. Could you check?
Result: n

Task: Hello, I'm reviewing records and need to know if viability of "CCn1c(SCC(=O)Nc2nc(C)cs2)nnc1-c1ccco1" is below 90%. Could you check?
Result: n

Task: Hello, I'm reviewing records and need to know if viability of "CC(C)CCNC(=O)NC(=O)COc1ccccc1C#N" is below 90%. Could you check?
Result: n

Task: Hello, I'm reviewing records and need to know if viability of Cc1ccc(-c2nnn(CC(=O)N(Cc3cccs3)C(C(=O)NC(C)(C)C)c3ccc(C)o3)n2)o1 (stereo not drawn) is below 90%. Could you check?
Result: n

Task: Hello, I'm reviewing records and need to know if viability of "CCCCn1cnc2c(cnn2-c2ccc(Cl)cc2)c1=O" is below 90%. Could you check?
Result: n

Task: Hello, I'm reviewing records and need to know if viability of "O=S(=O)(c1ccccc1)c1nc(-c2ccco2)oc1NCCCN1CCOCC1" is below 90%. Could you check?
Result: y

Task: Hello, I'm reviewing records and need to know if viability of COc1ccc(C2C3=C(CC(C)(C)CC3=O)Oc3ncn4nc(-c5cccnc5)nc4c32)cc1 (stereo not drawn) is below 90%. Could you check?
Result: n
